Biological target: Protein Rev (Human immunodeficiency virus type 1 group M subtype B (isolate WMJ22)) (UniProt P05866)
Sequence (P05866 whole entry, looked up): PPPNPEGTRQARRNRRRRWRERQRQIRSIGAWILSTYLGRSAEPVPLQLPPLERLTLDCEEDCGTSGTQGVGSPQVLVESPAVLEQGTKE
Experiment: disruptors of Rev peptide-RRE RNA complex – biochemical, FRET, protein-RNA interaction, primary screen (AID 704);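 note: 0% = median DMSO wells and 100% = median Neomycin B control wells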
Conditions: Rev peptide-RRE RNA binding, at 8 µM
Screen size: about 97,000 compounds; about 770 (0.79%) were called active.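 Rule for the calls: active = inhibition above the screen-wide mean plus 3 SD (cut at about 35% in these data); inactive = the rest.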 The sample as a whole holds a higher share of actives than the screen did.
Possible outcomes: label 1 (active), label 0 (inactive)

{"cpd-smiles": "CCOc1cccc(-n2nnnc2-c2ccc(OC)cc2)c1", "class-label": "label 0"}
{"cpd-smiles": "CCCCCCc1cc2cc(-c3nnc(-c4ccccc4)o3)c(=O)oc2cc1O", "class-label": "label 1"}
{"cpd-smiles": "CCOc1nnc(C)c2c(C)n(-c3cccc(Cl)c3)nc12", "class-label": "label 1"}
